TGT: CFTR-mediated chloride transport (Homo sapiens)
ASSAY_NAME: Corrector Assay A - membrane potential dye assay (enteroid cells)
CONDITION_NOTES: read-out: Corrector Assay A EC50; human intestinal enteroid cells, 18-24 h incubation; acute 10 μM forskolin + 300 nM ivacaftor
RECORDED_ENDPOINT: EC50

compound="CC(C)(C)c1ccc2c(n1)N1C[C@@H](CCC(c3cc(C(N)=O)ccn3)Nc3cccc(n3)S(=O)(=O)NC2=O)CC1(C)C (single isomer, unassigned) [Compound 83]" recorded_endpoint=EC50 endpoint_value="< 1000 nM"
compound=CC(C)(C)c1ccc2c(n1)N1C[C@@H](CC[C@@H](c3cccc(C4CCOCC4)n3)Nc3cccc(n3)S(=O)(=O)NC2=O)CC1(C)C recorded_endpoint=EC50 endpoint_value="> 3000 nM"
compound="CC(C)(C)c1ccc2c(n1)N1C[C@@H](CCC(CCCC(=O)O)Nc3cccc(n3)S(=O)(=O)NC2=O)CC1(C)C (stereo partly drawn)" recorded_endpoint=EC50 endpoint_value="1000 to 3000 nM"
compound="CC(C)N(C(=O)CCCC1CC[C@@H]2CN(c3nc(C(C)(C)C)ccc3C(=O)NS(=O)(=O)c3cccc(n3)N1)C(C)(C)C2)C(C)C (stereo partly drawn)" recorded_endpoint=EC50 endpoint_value="< 1000 nM"
compound="CC(C)(C)c1ccc2c(n1)N1C[C@@H](CCC(c3ccncc3)Nc3cccc(n3)S(=O)(=O)NC2=O)CC1(C)C (single isomer, unassigned) [Compound 233]" recorded_endpoint=EC50 endpoint_value="< 1000 nM"
compound=CC1(C)C[C@@H]2CC[C@H](c3ccccn3)Nc3cccc(n3)S(=O)(=O)NC(=O)c3ccc(-c4c(Cl)cccc4Cl)nc3N1C2 recorded_endpoint=EC50 endpoint_value="< 1000 nM"

* * *

TGT: CFTR-mediated chloride transport (Homo sapiens)
ASSAY_NAME: Corrector Assay A - membrane potential dye assay (enteroid cells)
CONDITION_NOTES: read-out: Corrector Assay A EC50; human intestinal enteroid cells, 18-24 h incubation; acute 10 μM forskolin + 300 nM ivacaftor
RECORDED_ENDPOINT: EC50

compound="CC(C)(C)c1ccc(C2CC[C@@H]3CN(c4nc(C(C)(C)C)ccc4C(=O)NS(=O)(=O)c4cccc(n4)N2)C(C)(C)C3)nc1 (single isomer, unassigned) [Compound 187]" endpoint_value="< 1000 nM"
compound=CC1(C)C[C@@H]2CC[C@@H](c3ccccn3)Nc3cccc(n3)S(=O)(=O)NC(=O)c3ccc(Cc4ccccc4)nc3N1C2 endpoint_value="< 1000 nM"
compound="CC(C)(C)c1ccc2c(n1)N1C[C@@H](CC[C@@H](c3cc(C4CCOCC4)ccn3)Nc3cccc(n3)S(=O)(=O)NC2=O)CC1(C)C (single isomer, unassigned) [Compound 121]" endpoint_value="< 1000 nM"

* * *

TGT: CFTR-mediated chloride transport (Homo sapiens, UniProt P13569)
ASSAY_NAME: Corrector Assay A - membrane potential dye assay (enteroid cells)
CONDITION_NOTES: % of chloride transport of triple combination control (1 μM (14S)-dispiro macrocycle + 3 μM tezacaftor + 300 nM ivacaftor)
RECORDED_ENDPOINT: Corrector Assay A % activity

compound=CC(C)O[C@H]1C[C@@H](Oc2ccc3c(n2)N2C[C@@H](CC[C@@H](c4ccccn4)Nc4cccc(n4)S(=O)(=O)NC3=O)CC2(C)C)C1 recorded_endpoint="Corrector Assay A % activity" endpoint_value="++ (++ is 30-60%)"
compound="CN(C)Cc1ccnc([C@@H]2CC[C@@H]3CN(c4nc(C(C)(C)C)ccc4C(=O)NS(=O)(=O)c4cccc(n4)N2)C(C)(C)C3)c1 (single isomer, unassigned) [Compound 87]" recorded_endpoint="Corrector Assay A % activity" endpoint_value="+ (+ is <30%)"
compound="CC(C)(C)c1ccc2c(n1)N1C[C@@H](CCC(c3ccc(CCCN)cn3)Nc3cccc(n3)S(=O)(=O)NC2=O)CC1(C)C (stereo partly drawn) [Compound 137]" recorded_endpoint="Corrector Assay A % activity" endpoint_value="++ (++ is 30-60%)"
compound=COCCN1CCC2(CC1)CC(NC(=O)[C@@H]1CC[C@@H]3CN(c4nc(C(C)(C)C)ccc4C(=O)NS(=O)(=O)c4cccc(n4)N1)C(C)(C)C3)C2 recorded_endpoint="Corrector Assay A % activity" endpoint_value="+ (+ is <30%)"
compound="CC(C)(C)c1ccc2c(n1)N1C[C@@H](CC[C@@H](c3cc(-c4cn[nH]c4)ccn3)Nc3cccc(n3)S(=O)(=O)NC2=O)CC1(C)C (single isomer, unassigned) [Compound 69]" recorded_endpoint="Corrector Assay A % activity" endpoint_value="++ (++ is 30-60%)"

* * *

TGT: CFTR-mediated chloride transport (Homo sapiens)
ASSAY_NAME: Corrector Assay B - membrane potential dye assay (enteroid cells);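 further: methyl oxonol membrane potential fluorescence followed over 15 min after switching to chloride-free buffer with forskolin, 100 µM IBMX and ivacaftor, in presence of CaCC blockers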
CONDITION_NOTES: % of chloride transport of triple combination control (3 μM Compound A + 3 μM tezacaftor + 300 nM ivacaftor)
RECORDED_ENDPOINT: Corrector Assay B % activity

compound="Cn1cnnc1CN1CCC[C@@H]2CN(c3nc(-n4ccc(OCCC5(C(F)(F)F)CC5)n4)ccc3C(=O)NS(=O)(=O)c3cccc1n3)C(C)(C)C2 [Compound 373]" endpoint_value="++ (++ is 30-60%)"
compound="CC1(C)C[C@@H]2CCC(c3ccccc3)Nc3cccc(n3)S(=O)(=O)NC(=O)c3cccnc3N1C2 (single isomer, unassigned) [Compound 289]" endpoint_value="+++ (+++ is >60%)"
compound="CC(C)(C)c1ccc2c(n1)N1C[C@@H](CC[C@@H](c3ccccc3)Nc3cccc(n3)S(=O)(=O)NC2=O)CC1(C)C (single isomer, unassigned) [Compound 294]" endpoint_value="+++ (+++ is >60%)"
compound="CC1(C)C[C@@H]2CCCN(CC3COC3)c3cccc(n3)S(=O)(=O)NC(=O)c3ccc(-n4ccc(OCCC5(C(F)(F)F)CC5)n4)nc3N1C2 [Compound 359]" endpoint_value="+++ (+++ is >60%)"
compound="CC1(C)C[C@@H]2CCC(c3ccccn3)Nc3cccc(n3)S(=O)(=O)NC(=O)c3ccc(-n4ccc(OCCC5(C(F)(F)F)CC5)n4)nc3N1C2 (single isomer, unassigned) [Compound 361]" endpoint_value="+++ (+++ is >60%)"
compound="CC1(C)C[C@@H]2CCC(c3ccccc3)Nc3cccc(n3)S(=O)(=O)NC(=O)c3cccnc3N1C2 (single isomer, unassigned) [Compound 288]" endpoint_value="+++ (+++ is >60%)"
compound="CC(C)(C)c1ccc2c(n1)N1C[C@@H](CCC(c3cncnc3)Nc3cccc(n3)S(=O)(=O)NC2=O)CC1(C)C (single isomer, unassigned) [Compound 298]" endpoint_value="+++ (+++ is >60%)"
compound="CC(C)(C)c1ccc2c(n1)N1C[C@@H](CCC(c3ccc(C(=O)O)cc3)Nc3cccc(n3)S(=O)(=O)NC2=O)CC1(C)C (single isomer, unassigned) [Compound 291]" endpoint_value="++ (++ is 30-60%)"
compound="CC1(C)CC2CCC(c3ccccc3)Nc3cccc(n3)S(=O)(=O)NC(=O)c3ccc(-n4ccc(OCCC5(C(F)(F)F)CC5)n4)nc3N1C2 (single isomer, unassigned) [Compound 383]" endpoint_value="+++ (+++ is >60%)"
compound="CC1(C)C[C@@H]2CCCN(c3ccccc3)c3cccc(n3)S(=O)(=O)NC(=O)c3ccc(-n4ccc(OCCC5(C(F)(F)F)CC5)n4)nc3N1C2 [Compound 395]" endpoint_value="++ (++ is 30-60%)"
compound="CC1(C)C[C@@H]2CCC(c3ccccc3)Nc3cccc(n3)S(=O)(=O)NC(=O)c3ccc(-n4ccc(OCCC5C6(CC6)C56CC6)n4)nc3N1C2 (single isomer, unassigned) [Compound 364]" endpoint_value="+++ (+++ is >60%)"
compound="CC1(C)CC2CC(c3ccccc3)CNc3cccc(n3)S(=O)(=O)NC(=O)c3ccc(-n4ccc(OCCC5(C(F)(F)F)CC5)n4)nc3N1C2 (single isomer, unassigned) [Compound 390]" endpoint_value="+++ (+++ is >60%)"
compound="CC1(C)CC2CN1c1nc(-n3ccc(OCCC4(C(F)(F)F)CC4)n3)ccc1C(=O)NS(=O)(=O)c1cccc(n1)NCCC2c1ccccc1 (single isomer, unassigned) [Compound 385]" endpoint_value="++ (++ is 30-60%)"
compound="CC1(C)C[C@@H]2CCC(c3cncnc3)Nc3cccc(n3)S(=O)(=O)NC(=O)c3ccc(-n4ccc(OCCC5(C(F)(F)F)CC5)n4)nc3N1C2 (single isomer, unassigned) [Compound 374]" endpoint_value="+++ (+++ is >60%)"
compound="CCCC1(C)CC2CCCNc3cccc(n3)S(=O)(=O)NC(=O)c3ccc(-n4ccc(OCCC5(C(F)(F)F)CC5)n4)nc3N1C2 (single isomer, unassigned) [Compound 368]" endpoint_value="+++ (+++ is >60%)"
compound="CC1(C)CC2CN1c1nc(-n3ccc(OCCC4(C(F)(F)F)CC4)n3)ccc1C(=O)NS(=O)(=O)c1cccc(n1)NCCC2c1ccccc1 (single isomer, unassigned) [Compound 386]" endpoint_value="++ (++ is 30-60%)"
compound="CC(C)(C)c1ccc2c(n1)N1C[C@@H](CCC(c3ccc(C(=O)O)cc3)Nc3cccc(n3)S(=O)(=O)NC2=O)CC1(C)C (single isomer, unassigned) [Compound 290]" endpoint_value="++ (++ is 30-60%)"
compound="CN(C)C(=O)CN1CCC[C@@H]2CN(c3nc(-n4ccc(OCCC5(C(F)(F)F)CC5)n4)ccc3C(=O)NS(=O)(=O)c3cccc1n3)C(C)(C)C2 [Compound 376]" endpoint_value="++ (++ is 30-60%)"
compound="CC1(C)CC2CN1c1nc(-n3ccc(OCCC4(C(F)(F)F)CC4)n3)ccc1C(=O)NS(=O)(=O)c1cccc(n1)NCCC2c1ccccc1 (single isomer, unassigned) [Compound 393]" endpoint_value="+++ (+++ is >60%)"
compound="CC(C)(C)c1ccc2c(n1)N1C[C@@H](CCC(c3ccccn3)Nc3cccc(n3)S(=O)(=O)NC2=O)CC1(C)C (single isomer, unassigned) [Compound 292]" endpoint_value="+++ (+++ is >60%)"
compound="CC1(C)C[C@@H]2CCCN(CCCCCC#N)c3cccc(n3)S(=O)(=O)NC(=O)c3ccc(-n4ccc(OCCC5(C(F)(F)F)CC5)n4)nc3N1C2 [Compound 369]" endpoint_value="++ (++ is 30-60%)"
compound="CC1(C)C[C@@H]2CCCN(C[C@H](O)CO)c3cccc(n3)S(=O)(=O)NC(=O)c3ccc(-n4ccc(OCCC5(C(F)(F)F)CC5)n4)nc3N1C2 (single isomer, unassigned) [Compound 381]" endpoint_value="+++ (+++ is >60%)"
